test system: Amine oxidase [flavin-containing] B (Homo sapiens)
assay procedure: Inhibition of recombinant human MAOB at 10 uM using kynuramine as substrate preincubated for 30 mins followed by substrate addition and measured after 30 mins by fluorescence assay relative to control
cond: 0.5 h
Think of 10% as a floor: if inhibition at 10 µM stands on it or above, it is yes (1); beneath it, no (0).

Does inhibition at 10 µM meet or surpass 10% for `COc1cc2c(cc1OC)/C(=C/c1cccc(O)c1N1CCCCC1)OC2=O` ? yes (1)

Does inhibition at 10 µM meet or surpass 10% for `COc1cc2c(cc1OC)/C(=C/c1ccc(N3CCCCC3)c(O)c1)OC2=O` ? no (0)

Does inhibition at 10 µM meet or surpass 10% for `CCN(CC)c1ccc(/C=C2/OC(=O)c3cc(OC)c(OC)cc32)cc1O` ? yes (1)

Does inhibition at 10 µM meet or surpass 10% for COc1cc2c(cc1OC)C(Cc1ccc(N3CCCC3)c(O)c1)OC2=O (stereo not given) ? yes (1)

Does inhibition at 10 µM meet or surpass 10% for `COc1cc2c(cc1OC)/C(=C/c1cccc(O)c1N1CCN(C)CC1)OC2=O` ? yes (1)

Does inhibition at 10 µM meet or surpass 10% for COc1cc2c(cc1OC)C(Cc1ccc(N3CCN(C)CC3)c(O)c1)OC2=O (stereo not given) ? yes (1)

Does inhibition at 10 µM meet or surpass 10% for `COc1cc2c(cc1OC)/C(=C/c1cccc(O)c1N1CCOCC1)OC2=O` ? yes (1)

Does inhibition at 10 µM meet or surpass 10% for COc1cc2c(cc1OC)C(Cc1ccc(N3CCCCC3)c(O)c1)OC2=O (stereo not given) ? no (0)

Continuing:
Does inhibition at 10 µM meet or surpass 10% for COc1cc2c(cc1OC)C(Cc1cccc(O)c1N1CCCC1)OC2=O (stereo not given) ? yes (1)

Does inhibition at 10 µM meet or surpass 10% for `COc1cc2c(cc1OC)/C(=C/c1cccc(O)c1N1CCCC1)OC2=O` ? yes (1)

* * *

# pIC50 per entry for Acetylcholinesterase (Electrophorus electricus, UniProt O42275)
One number for each entry, as −log10 of the molar value.

Value of measured pIC50 for the entry `COc1cc2c(cc1OC)/C(=C\c1ccc(N3CCOCC3)c(O)c1)OC2=O` : 5.61

Value of measured pIC50 for the entry `CCN(CC)c1cc(/C=C2/OC(=O)c3cc(OC)c(OC)cc32)ccc1O` : 9.51

Value of measured pIC50 for the entry `CCN(CC)c1cc(/C=C2\OC(=O)c3cc(OC)c(OC)cc32)ccc1O` : 9.42

Value of measured pIC50 for the entry `COc1cc2c(cc1OC)/C(=C/c1cccc(O)c1N1CCCC1)OC2=O` : 5.05

// below: pIC50 requested for another compound
Value of measured pIC50 for the entry `CCN(CC)c1ccc(/C=C2/OC(=O)c3cc(OC)c(OC)cc32)cc1O` : 7.59

* * *

test system: Amyloid-beta precursor protein (Homo sapiens) (UniProt P05067)
Sequence (P05067 whole entry): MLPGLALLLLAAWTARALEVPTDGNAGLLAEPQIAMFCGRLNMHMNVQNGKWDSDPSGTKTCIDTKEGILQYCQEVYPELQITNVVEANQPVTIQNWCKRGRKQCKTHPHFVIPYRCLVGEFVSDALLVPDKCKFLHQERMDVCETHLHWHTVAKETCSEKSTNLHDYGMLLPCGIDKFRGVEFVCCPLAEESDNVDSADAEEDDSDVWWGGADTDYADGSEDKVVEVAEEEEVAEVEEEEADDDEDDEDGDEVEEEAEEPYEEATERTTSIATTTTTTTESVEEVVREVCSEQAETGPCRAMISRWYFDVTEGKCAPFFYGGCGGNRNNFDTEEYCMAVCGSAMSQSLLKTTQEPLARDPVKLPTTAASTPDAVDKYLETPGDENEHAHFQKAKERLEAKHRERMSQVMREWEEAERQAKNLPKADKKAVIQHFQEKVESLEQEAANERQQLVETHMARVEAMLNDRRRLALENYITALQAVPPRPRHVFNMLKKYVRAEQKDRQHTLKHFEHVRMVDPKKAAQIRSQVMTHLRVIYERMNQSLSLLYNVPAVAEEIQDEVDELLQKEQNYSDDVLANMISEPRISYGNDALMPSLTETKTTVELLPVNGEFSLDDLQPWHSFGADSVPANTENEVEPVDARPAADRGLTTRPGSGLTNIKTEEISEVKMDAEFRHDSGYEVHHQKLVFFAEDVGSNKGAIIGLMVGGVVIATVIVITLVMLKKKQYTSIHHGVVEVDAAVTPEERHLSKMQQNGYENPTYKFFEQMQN
assay procedure: Inhibition of amyloid beta (1 to 42) (unknown origin) self aggregation at 25 uM after 24 hrs by thioflavin-T fluorescence method relative to control
Can you tell me inhibition for the items I'm about to list?

Value of measured inhibition for the entry COc1cc2c(cc1OC)C(Cc1ccc(N3CCOCC3)c(O)c1)OC2=O (stereo not given) : 29.5%

Value of measured inhibition for the entry `CCN(CC)c1cc(/C=C2/OC(=O)c3cc(OC)c(OC)cc32)ccc1O` : 33.6%

Value of measured inhibition for the entry `COc1cc2c(cc1OC)/C(=C\c1ccc(O)c(N3CCCCC3)c1)OC2=O` : 15.8%

Value of measured inhibition for the entry `COc1cc2c(cc1OC)/C(=C/c1ccc(N3CCCCC3)c(O)c1)OC2=O` : 24.6%

// below: inhibition requested for another compound
Value of measured inhibition for the entry `COc1cc2c(cc1OC)/C(=C\c1ccc(N3CCCCC3)c(O)c1)OC2=O` : 22.5%

* * *

test system: Amine oxidase [flavin-containing] B (Homo sapiens, UniProt P27338)
assay procedure: Inhibition of recombinant human MAOB using kynuramine as substrate preincubated for 30 mins followed by substrate addition and measured after 30 mins by fluorescence assay
property name: pIC50
One number for each entry, as −log10 of the molar value.

Here `COc1cc2c(cc1OC)/C(=C/c1ccc(N3CCN(C)CC3)c(O)c1)OC2=O` was tested on Amine oxidase [flavin-containing] B (Homo sapiens, UniProt P27338), and its pIC50 came to 5.81

Continuing:
Here `COc1cc2c(cc1OC)/C(=C/c1ccc(O)c(N3CCCCC3)c1)OC2=O` was tested on Amine oxidase [flavin-containing] B (Homo sapiens, UniProt P27338), and its pIC50 came to 5.23

* * *

System: Plasma
assay procedure: Antiplatelet activity in rat platelet-rich plasma assessed as inhibition of ADP-induced platelet aggregation at 33 uM preincubated for 30 mins followed by ADP addition measured within 5 mins by aggregometry relative to control
Assay type: functional
cond: time 30-35 min
Can you tell me inhibition at 33 µM for the items I'm about to list?
Give bare numbers, in %.

Worked cases, inhibition at 33 µM given:
Value of measured inhibition at 33 µM for the entry `CCN(CC)c1cc(/C=C2\OC(=O)c3cc(OC)c(OC)cc32)ccc1O` : 45.1

Value of measured inhibition at 33 µM for the entry `CCN(CC)c1ccc(/C=C2\OC(=O)c3cc(OC)c(OC)cc32)cc1O` : 12.4

Value of measured inhibition at 33 µM for the entry `CC(=O)Oc1ccccc1C(=O)O` : 12.4

Value of measured inhibition at 33 µM for the entry `COc1cc2c(cc1OC)/C(=C/c1ccc(N3CCCCC3)c(O)c1)OC2=O` : 15.4

Value of measured inhibition at 33 µM for the entry `COc1cc2c(cc1OC)/C(=C/c1ccc(O)c(N3CCCCC3)c1)OC2=O` : 32.5

Value of measured inhibition at 33 µM for the entry `CCN(CC)c1cc(/C=C2/OC(=O)c3cc(OC)c(OC)cc32)ccc1O` : 53.8

Value of measured inhibition at 33 µM for the entry CCCCC1OC(=O)c2ccccc21 (racemic) [RAC-3-N-BUTYLPHTHALIDE] : 9.5

Value of measured inhibition at 33 µM for the entry `COc1cc2c(cc1OC)/C(=C\c1ccc(O)c(N3CCCCC3)c1)OC2=O` : 18.4

// below: inhibition at 33 µM requested for another compound
Value of measured inhibition at 33 µM for the entry `COc1cc2c(cc1OC)/C(=C\c1ccc(N3CCCC3)c(O)c1)OC2=O` : 9.8

* * *

test system: Amine oxidase [flavin-containing] B (Homo sapiens, UniProt P27338)
Sequence (P27338 whole entry): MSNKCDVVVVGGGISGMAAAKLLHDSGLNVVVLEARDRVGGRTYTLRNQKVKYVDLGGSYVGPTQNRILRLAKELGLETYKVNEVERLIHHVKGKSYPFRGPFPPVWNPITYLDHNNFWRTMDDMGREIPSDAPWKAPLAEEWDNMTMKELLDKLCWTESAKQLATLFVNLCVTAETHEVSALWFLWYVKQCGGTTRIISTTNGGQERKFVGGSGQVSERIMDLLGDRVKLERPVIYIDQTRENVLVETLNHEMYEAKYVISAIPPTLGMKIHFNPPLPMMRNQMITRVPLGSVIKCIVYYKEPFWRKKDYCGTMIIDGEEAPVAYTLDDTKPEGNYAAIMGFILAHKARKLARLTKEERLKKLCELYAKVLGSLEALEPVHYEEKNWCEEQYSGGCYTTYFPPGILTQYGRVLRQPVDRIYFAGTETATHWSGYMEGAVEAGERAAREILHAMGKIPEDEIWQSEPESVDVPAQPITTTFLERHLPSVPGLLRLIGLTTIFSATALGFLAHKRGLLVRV
assay procedure: Inhibition of recombinant human MAOB at 10 uM using kynuramine as substrate preincubated for 30 mins followed by substrate addition and measured after 30 mins by fluorescence assay relative to control
cond: 0.5 h
Think of 20% as a floor: if inhibition at 10 µM stands on it or above, it is YES; beneath it, NO.

Does inhibition at 10 µM meet or surpass 20% for `CCN(CC)c1ccc(/C=C2\OC(=O)c3cc(OC)c(OC)cc32)cc1O` ? YES

Does inhibition at 10 µM meet or surpass 20% for `COc1cc2c(cc1OC)/C(=C\c1ccc(N3CCCCC3)c(O)c1)OC2=O` ? NO

Does inhibition at 10 µM meet or surpass 20% for `COc1cc2c(cc1OC)/C(=C\c1ccc(N3CCOCC3)c(O)c1)OC2=O` ? NO

Continuing:
Does inhibition at 10 µM meet or surpass 20% for `COc1cc2c(cc1OC)/C(=C\c1cccc(O)c1N1CCCC1)OC2=O` ? NO

Does inhibition at 10 µM meet or surpass 20% for `COc1cc2c(cc1OC)/C(=C/c1ccc(N3CCCC3)c(O)c1)OC2=O` ? YES

Does inhibition at 10 µM meet or surpass 20% for CCN(CC)c1c(O)cccc1CC1OC(=O)c2cc(OC)c(OC)cc21 (stereo not given) ? NO

Does inhibition at 10 µM meet or surpass 20% for `COc1cc2c(cc1OC)/C(=C\c1cccc(O)c1N1CCN(C)CC1)OC2=O` ? NO

Does inhibition at 10 µM meet or surpass 20% for `COc1cc2c(cc1OC)/C(=C\c1cccc(O)c1N1CCOCC1)OC2=O` ? NO

Does inhibition at 10 µM meet or surpass 20% for `COc1cc2c(cc1OC)/C(=C\c1cccc(O)c1N1CCCCC1)OC2=O` ? YES

Does inhibition at 10 µM meet or surpass 20% for COc1cc2c(cc1OC)C(Cc1cccc(O)c1N1CCN(C)CC1)OC2=O (stereo not given) ? NO

Cited source: ChEMBL document CHEMBL4706703
